Fold Difference (Curve IC50): recorded values
- Tgt: RSV F protein on respiratory syncytial virus (RSV-Long strain) (respiratory syncytial virus (Long strain)) (UniProt P12568)
- Sequence (P12568 26-574): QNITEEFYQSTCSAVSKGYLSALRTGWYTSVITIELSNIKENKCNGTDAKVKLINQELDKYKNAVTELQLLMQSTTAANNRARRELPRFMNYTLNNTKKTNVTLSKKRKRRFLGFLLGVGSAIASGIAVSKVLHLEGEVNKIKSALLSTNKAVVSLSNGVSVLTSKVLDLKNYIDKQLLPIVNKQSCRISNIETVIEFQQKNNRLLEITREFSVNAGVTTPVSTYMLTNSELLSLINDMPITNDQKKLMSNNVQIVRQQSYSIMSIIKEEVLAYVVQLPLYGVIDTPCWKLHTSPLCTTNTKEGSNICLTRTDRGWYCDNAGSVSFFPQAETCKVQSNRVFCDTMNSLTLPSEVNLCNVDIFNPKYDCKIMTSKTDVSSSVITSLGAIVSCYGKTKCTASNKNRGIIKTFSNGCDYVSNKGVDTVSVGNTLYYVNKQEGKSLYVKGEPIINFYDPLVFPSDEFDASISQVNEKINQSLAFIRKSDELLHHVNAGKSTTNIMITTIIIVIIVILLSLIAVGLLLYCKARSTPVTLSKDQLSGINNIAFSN
- Test name: cell-based or functional assay
Give the value in fold but do not write fold after it.

Here is how some binders turned out for Fold Difference (Curve IC50).
• P12f2 monoclonal antibody (antibody, V domains shown) VH: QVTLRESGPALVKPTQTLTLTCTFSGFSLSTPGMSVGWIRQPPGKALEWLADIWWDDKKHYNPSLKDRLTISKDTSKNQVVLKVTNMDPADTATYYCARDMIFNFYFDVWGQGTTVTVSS VL: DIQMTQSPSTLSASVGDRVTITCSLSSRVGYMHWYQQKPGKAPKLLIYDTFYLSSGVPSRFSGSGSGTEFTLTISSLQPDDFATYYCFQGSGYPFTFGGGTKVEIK = 20
• A4B4 Fab fragment (Fab, V domains shown) VH: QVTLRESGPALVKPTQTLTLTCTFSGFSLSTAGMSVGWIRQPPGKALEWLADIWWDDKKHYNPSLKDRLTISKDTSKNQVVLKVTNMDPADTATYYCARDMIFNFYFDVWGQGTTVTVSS VL: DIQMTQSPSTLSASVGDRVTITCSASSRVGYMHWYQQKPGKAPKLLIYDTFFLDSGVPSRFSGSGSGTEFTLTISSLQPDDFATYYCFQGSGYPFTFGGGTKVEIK = 11
• A4B4 monoclonal antibody (antibody, V domains shown) VH: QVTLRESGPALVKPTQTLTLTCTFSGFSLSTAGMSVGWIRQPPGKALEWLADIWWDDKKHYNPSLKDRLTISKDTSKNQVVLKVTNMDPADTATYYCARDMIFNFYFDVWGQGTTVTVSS VL: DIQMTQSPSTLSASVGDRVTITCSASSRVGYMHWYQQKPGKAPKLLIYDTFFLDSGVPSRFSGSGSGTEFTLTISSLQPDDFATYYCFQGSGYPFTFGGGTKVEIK = 27

Req: // returns reported Fold Difference (Curve IC50) for input A1e9 Fab fragment (Fab, V domains shown) VH: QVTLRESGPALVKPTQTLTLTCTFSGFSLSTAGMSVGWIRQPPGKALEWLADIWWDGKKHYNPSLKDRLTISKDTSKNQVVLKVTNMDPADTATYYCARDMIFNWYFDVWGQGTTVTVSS VL: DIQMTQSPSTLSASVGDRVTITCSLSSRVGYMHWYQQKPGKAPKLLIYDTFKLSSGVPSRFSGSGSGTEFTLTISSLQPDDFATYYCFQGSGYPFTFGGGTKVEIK
Resp: 3

Req: Need Fold Difference (Curve IC50), item A8c7 Fab fragment (Fab, V domains shown) VH: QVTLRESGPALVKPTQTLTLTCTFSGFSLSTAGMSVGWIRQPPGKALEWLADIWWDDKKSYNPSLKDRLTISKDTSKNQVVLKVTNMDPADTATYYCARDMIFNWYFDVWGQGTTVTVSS VL: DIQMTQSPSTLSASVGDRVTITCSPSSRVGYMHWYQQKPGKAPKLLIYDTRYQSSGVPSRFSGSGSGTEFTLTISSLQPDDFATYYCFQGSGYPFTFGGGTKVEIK
Resp: 3
